Cited source for all entries: paper PMC7807878

- Test system: MDA-MB-231 cells
- Protocol: Drug sensitivity (MTS), MDA-MB-231
- Format: cell-based
- Applied Conditions: Homo sapiens, MDA-MB-231, 48 h, doxorubicin, anti-PN peptide treated MDA-MB-231 without rPN, 48 h, MTS; P-value = 0.870
Attribute Measured: IC50 (nM)
Form entry: value (nM) — number only.

Consider COc1cccc2c1C(=O)c1c(O)c3c(c(O)c1C2=O)C[C@@](O)(C(=O)CO)C[C@@H]3O[C@H]1C[C@H](N)[C@H](O)[C@H](C)O1 [doxorubicin] . Its measured IC50 is 896

* * *

- Test system: MDA-MB-231 cells
- Protocol: Drug sensitivity (MTS), MDA-MB-231
- Format: cell-based
- Applied Conditions: Homo sapiens, MDA-MB-231, 48 h, doxorubicin with anti-PN peptide, mock transfected MDA-MB-231, 48 h, MTS; P-value = 0.932
Attribute Measured: pIC50
In simple prose, pIC50 is minus the logarithm base ten of a concentration in moles per litre.

Measured on MDA-MB-231 cells, `COc1cccc2c1C(=O)c1c(O)c3c(c(O)c1C2=O)C[C@@](O)(C(=O)CO)C[C@@H]3O[C@H]1C[C@H](N)[C@H](O)[C@H](C)O1` has a documented pIC50 of 6.15
